These data points were gathered from patent US5326776A.

Target: angiotensin II receptor (Oryctolagus cuniculus)
Construct: Main abdominal aortas were removed and placed in Krebs-Henseleit buffer at room temperature; from tissue; host or cells: main abdominal aorta rings (3 mm) of female New Zealand White rabbits
Sequence (P34976 1-359): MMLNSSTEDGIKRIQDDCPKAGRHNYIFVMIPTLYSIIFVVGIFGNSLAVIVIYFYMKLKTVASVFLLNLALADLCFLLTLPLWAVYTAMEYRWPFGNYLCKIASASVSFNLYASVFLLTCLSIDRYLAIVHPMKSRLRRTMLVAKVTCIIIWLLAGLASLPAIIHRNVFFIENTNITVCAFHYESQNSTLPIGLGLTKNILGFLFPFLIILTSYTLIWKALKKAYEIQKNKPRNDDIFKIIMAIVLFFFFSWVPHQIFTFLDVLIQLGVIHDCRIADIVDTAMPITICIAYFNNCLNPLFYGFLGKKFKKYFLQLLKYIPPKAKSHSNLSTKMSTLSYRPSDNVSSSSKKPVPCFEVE
Experiment: Antagonism of contraction of rabbit aorta (angiotensin II functional assay, isolated rabbit aorta, pA2)
Parameters: species or system rabbit (female New Zealand White)
Settings: angiotensin II as agonist, 30 minutes incubation with antagonist, Schild analysis, negative logarithm of [A]2
Outcome: y for Kb of at least 20 nM; n for anything lower.

querySmiles: CCCN(Cc1ccc(-c2ccccc2-c2nn[nH]n2)cc1)c1nn(C)cc1C(=O)O
discreteLabel: n
--
querySmiles: CCCN(Cc1ccc(-c2ccccc2-c2nn[nH]n2)cc1)c1nc(C(F)(F)F)c(C(=O)O)s1
discreteLabel: y
--
querySmiles: CCCc1nc(N(CCC)Cc2ccc(-c3ccccc3-c3nn[nH]n3)cc2)sc1C(=O)O
discreteLabel: y
--
querySmiles: CCCN(Cc1ccc(-c2ccccc2-c2nn[nH]n2)cc1)c1nc(C)c(C(=O)O)s1
discreteLabel: n
--
querySmiles: CCCCN(Cc1ccc(-c2ccccc2-c2nn[nH]n2)cc1)c1snnc1C(=O)O
discreteLabel: n
--
querySmiles: CCCCN(Cc1ccc(-c2ccccc2-c2nnn[nH]2)cc1)c1snnc1C(=O)OCC
discreteLabel: n
--
querySmiles: CCCCN(Cc1ccc(-c2ccccc2-c2nn[nH]n2)cc1)c1ncc(C(=O)O)s1
discreteLabel: n
--
querySmiles: CCCCN(Cc1ccc(-c2ccccc2-c2nn[nH]n2)cc1)c1scnc1C(=O)O
discreteLabel: n
--
querySmiles: CCCCN(Cc1ccc(-c2ccccc2-c2nnn[nH]2)cc1)c1nc(SC)n(C)c1C(=O)OCC
discreteLabel: y
--
querySmiles: CCCN(Cc1ccc(-c2ccccc2-c2nn[nH]n2)cc1)c1ncc(C(=O)O)s1
discreteLabel: n
--
querySmiles: CCCCN(Cc1ccc(-c2ccccc2-c2nn[nH]n2)cc1)c1cn(CC)cn1
discreteLabel: n
--
querySmiles: CCCCN(Cc1ccc(-c2ccccc2-c2nn[nH]n2)cc1)c1ncn(CC)c1C(=O)OC(C)(C)C
discreteLabel: y
--
querySmiles: CCCCN(Cc1ccc(-c2ccccc2-c2nnn[nH]2)cc1)c1nnc(C(=O)OCC)s1
discreteLabel: n
